Molecular target: T1, V1bR (Homo sapiens), P47901
T1 chain: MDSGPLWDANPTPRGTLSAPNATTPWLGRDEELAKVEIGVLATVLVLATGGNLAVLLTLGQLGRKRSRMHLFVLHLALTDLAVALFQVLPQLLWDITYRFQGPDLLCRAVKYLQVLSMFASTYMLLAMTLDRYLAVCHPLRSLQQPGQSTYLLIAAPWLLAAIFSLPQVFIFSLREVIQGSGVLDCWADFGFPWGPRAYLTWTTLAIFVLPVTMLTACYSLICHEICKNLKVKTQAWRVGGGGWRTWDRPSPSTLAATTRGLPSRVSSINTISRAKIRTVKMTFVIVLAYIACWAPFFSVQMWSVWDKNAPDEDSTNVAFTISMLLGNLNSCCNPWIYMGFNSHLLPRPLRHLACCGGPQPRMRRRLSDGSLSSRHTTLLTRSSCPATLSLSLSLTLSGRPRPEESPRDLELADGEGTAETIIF
Experiment: radioligand displacement
Conditions: modification not given
MEASURED PARAMETER: Ki (nM)

1) CLITNCPRG [inotocin]
12
